- Test system: SNB-19
- Assay Name: NCI tumour cell line growth inhibition, 48 h
Calls of active or inactive are those of the source. Rule as the data show it: active = GI50 up to about 1.1 µM and inactive = higher.
Exercise: for every item that follows, state its recorded GI50.

CCCCNc1nc(O)c2[nH]cnc2n1 : > 100 µM (inactive)
COc1ccc2c3c1O[C@H]1C(=O)C=CC4(n5[nH]c(=O)n(-c6ccccc6)c5=O)C(C2)N(C)CCC314 (some centres undefined) : > 100 µM (inactive)
COC(=O)c1ccccc1C1CN=NC12Cc1cccc(C)c1C2=O (centres undefined) : 70 µM (inactive)
CCOC(=O)c1c(SCCN(CC)CC)n(-c2ccccc2)c(=S)n(-c2ccccc2)c1=O : 17.9 µM (inactive)
COC(=O)CCC(=O)Nc1ccc(Cl)cc1C : > 100 µM (inactive)

Could I get GI50 for every one of these entries?
1. C=C(C)[C@@H]1CC[C@]2(C(=O)O)CC[C@]3(C)[C@H](CC[C@@H]4[C@@]5(C)CC(=O)C(C)(C)[C@@H]5CC[C@]43C)[C@@H]12
2. Cc1csc2n(C)c(=O)c3ccccc3[n+]12
3. COC(=O)[C@]12CC=C3O[C@@H]4OC5(CCCCC5)O[C@@H]4[C@H]3C1C(=O)C=CC2=O (some centres undefined)
4. COc1cc(C(=O)C/C(CCC(=O)Nc2ccccc2[N+](=O)[O-])=N\NC(=O)CC#N)ccc1O

1: 11.7 µM (inactive); 2: > 100 µM (inactive); 3: 38.3 µM (inactive); 4: > 100 µM (inactive)
